Source: ChEMBL document CHEMBL1128708

- Species on record: Rattus norvegicus
- METHOD_SUMMARY: Maximal non-erythrolytic concentration(MNEC) was measured in erythrocytes from rat citreated blood
- Format: functional
Binary label based on MNEC with cut-off 10 µM: below gives met, not below gives not met.

CCCCCCCCCCCC(=O)CCCCCCOCC(COCCCCC[N+](C)(C)C)OC.[Br-] (centres undefined) ... met
CCCCCCCCCCCC(C)CCCCCCOCC(COP(=O)([O-])OCC[N+](C)(C)C)OC (centres undefined) ... met
COC(COCCCCCCCCCCC(O)c1ccccc1)COP(=O)([O-])OCC[N+](C)(C)C (centres undefined) ... not met
CCCCCCCCCCCC(=O)CCCCCCOCC(COP(=O)([O-])OCC[N+](C)(C)C)OC (centres undefined) ... not met
CCCCCCCCCCCC(=O)CCCCCCOCC(COP(=O)(O)OC[C@@H](N)C(=O)O)OC (some centres undefined) ... not met
CCCCCCC(O)CCCCCCCCCCCOCC(COCCCCC[N+](C)(C)C)OC.[Br-] (centres undefined) ... not met
CCCCCCCCCCCCCCCCCCOCC(COP(=O)([O-])OCC[N+](C)(C)C)OC (centres undefined) ... met
CCCCCCCCCCCCCCCCC(=O)COCC(COP(=O)([O-])OCC[N+](C)(C)C)OC (centres undefined) ... met
CCCCC(CCCC)CCCCCCOCC(COP(=O)([O-])OCC[N+](C)(C)C)OC (centres undefined) ... not met
CCCCCCCCCCCC(=O)CCCCCCOC[C@@H](COP(=O)([O-])OCC[N+](C)(C)C)OC ... not met

**Q:** # strict comparison: is reported MNEC < 10 µM? input = CCCCCCCCCCCCCCCCOP(=O)([O-])OCC[N+](C)(C)C
**A:** met

**Q:** # strict comparison: is reported MNEC < 10 µM? input = CCCCCCCCC(CCCCCCCC)CCCCCCOCC(COP(=O)([O-])OCC[N+](C)(C)C)OC (centres undefined)
**A:** not met

**Q:** # strict comparison: is reported MNEC < 10 µM? input = CCCCCCCCCCCCCCCCCCOCC(COP(=O)(O)OC[C@@H](N)C(=O)O)OC (some centres undefined)
**A:** not met

**Q:** # strict comparison: is reported MNEC < 10 µM? input = CCCCCCC(CCCCCC)CCCCCCCCCCCOCC(COP(=O)([O-])OCC[N+](C)(C)C)OC (centres undefined)
**A:** not met

**Q:** # strict comparison: is reported MNEC < 10 µM? input = CCCCCCC(=O)CCCCCCCCCCCOCC(COP(=O)([O-])OCC[N+](C)(C)C)OC (centres undefined)
**A:** not met

**Q:** # strict comparison: is reported MNEC < 10 µM? input = CCCCCCC(=O)CCCCCCCCCCCOCC(COP(=O)(O)OC[C@@H](N)C(=O)O)OC (some centres undefined)
**A:** not met

**Q:** # strict comparison: is reported MNEC < 10 µM? input = COC(COCCCCCCCCCCC(=O)c1ccccc1)COP(=O)([O-])OCC[N+](C)(C)C (centres undefined)
**A:** not met

---

- METHOD_SUMMARY: Partition coefficient (logP)
- Assay type: physicochemical
- MEASUREMENT_SETUP: octanol/water; read-out: logP
PARAMETER_MEASURED: logP
Reply: number alone, nothing else.

Solved entries (count: 3):
COC(COCCCCCCCCCCC(=O)c1ccccc1)COP(=O)([O-])OCC[N+](C)(C)C (centres undefined) ... 4.29
CCCCCCCCCCCCCCCCC(=O)COCC(COP(=O)([O-])OCC[N+](C)(C)C)OC (centres undefined) ... 6.29
COC(COCCCCCCCCCCCCCCCCc1ccccc1)COP(=O)([O-])OCC[N+](C)(C)C (centres undefined) ... 7.59

**Q:** Sample COC(COCCCCCCCCCCC(O)c1ccccc1)COP(=O)([O-])OCC[N+](C)(C)C (centres undefined) — what was its logP?
**A:** 4.7

---

- METHOD_SUMMARY: Partition coefficient (logP)
- Format: physicochemical
- MEASUREMENT_SETUP: octanol/water; read-out: logP
PARAMETER_MEASURED: logP

Solved entries (count: 8):
CCCCCCCCCCCC(C)CCCCCCOCC(COP(=O)([O-])OCC[N+](C)(C)C)OC (centres undefined) ... 7.1
CCCCCCCCC(CCCCCCCC)CCCCCCOCC(COP(=O)([O-])OCC[N+](C)(C)C)OC (centres undefined) ... 8.68
CCCCC(CCCC)CCCCCCOCC(COP(=O)([O-])OCC[N+](C)(C)C)OC (centres undefined) ... 5.51
CCCCCCC(=O)CCCCCCCCCCCOCC(COP(=O)([O-])OCC[N+](C)(C)C)OC (centres undefined) ... 5.92
CCCCCCCCCCCCCCCCCCOCC(COP(=O)([O-])OCC[N+](C)(C)C)OC (centres undefined) [EDELFOSINE] ... 6.77
CCCCCCCCCCCCCCC(=O)CCCOCC(COP(=O)([O-])OCC[N+](C)(C)C)OC (centres undefined) ... 5.92
CCCCCCCCCCCC(=O)CCCCCCOC[C@@H](COP(=O)([O-])OCC[N+](C)(C)C)OC ... 5.92
CCCCCCCCCCCC(=O)CCCCCCOCC(COP(=O)([O-])OCC[N+](C)(C)C)OC (centres undefined) ... 5.92

**Q:** Sample CCCCCCCCC(CCCCCCOCC(COP(=O)([O-])OCC[N+](C)(C)C)OC)c1ccccc1 (centres undefined) — what was its logP?
**A:** 7.13

---

- Species on record: Rattus norvegicus
- METHOD_SUMMARY: Maximal non-erythrolytic concentration(MNEC) was measured in erythrocytes from rat citreated blood
- Assay type: functional
PARAMETER_MEASURED: MNEC (µM)
Kindly provide the numeric value in µM only, without the unit symbol.

CCCCCCCCC(CCCCCCOCC(COP(=O)([O-])OCC[N+](C)(C)C)OC)c1ccccc1 (stereo not drawn) ... 5

Would you kindly look at the next entry?
**Q:** Sample CCCCCCCCCCCCCCCCCCOCC(COCCCCC[N+](C)(C)C)OC.[Br-] (stereo not drawn) — what was its MNEC?
**A:** 5
